# TARGET_DESC: T1, purified prostasomes (from human seminal plasma) (human)
# T1 construct: Not a single protein: exosome-type vesicle purified from seminal plasma
# TEST_PROTOCOL: direct ELISA, coated purified prostasomes, biotinylated scFv at 4 µg/mL, streptavidin-HRP
# Absorbance annotations

Previously resolved entries follow.
Record human synthetic scFv fragment 10 (scFv, also called scFv 10) scFv: EVQLLESGGGLVQPGGSLRLSCAASGFTFSSYAMSWVRQAPGKGLEWVSAISGSGGSTYYASVKGRFTISRDNSKNTLYLQMNSLRAEDTAVYYCARYSYYYTWLDYWGQGTLVTVSSGGGGSGGGGSGGGGSDIQMTQSPSSLSASVGDRVTITCRASQSISSYLNWYQQKPGKAPKLLIYAASSLQSGVPSRFSGSGSGTDFTLTISSLQPEDFATYYCQQFYPSLHTFGQGTKLEIKR . Reported Absorbance: 1.64 absorbance at 450 nm

# binder human synthetic scFv fragment 6 (scFv, also called scFv 6) scFv: EVQLLESGGGLVQPGGSLRLSCAASGFTFSSYAMSWVRQAPGKGLEWVSAISGSGGSTYYASVKGRFTISRDNSKNTLYLQMNSLRAEDTAVYYCARYVRGYGYGYLDYWGQGTLVTVSSGGGGSGGGGSGGGGSDIQMTQSPSSLSASVGDRVTITCRASQSISSYLNWYQQKPGKAPKLLIYAASSLQSGVPSRFSGSGSGTDFTLTISSLQPEDFATYYCQQAPAYSPFTFGQGTKLEIKR ; its Absorbance = 0.556 absorbance at 450 nm

Please examine the following record next.
Reported Absorbance of human synthetic scFv fragment 3 (scFv, also called scFv 3) scFv: EVQLLESGGGLVQPGGSLRLSCAASGFTFSSYAMSWVRQAPGKGLEWVSAISGSGGSTYYASVKGRFTISRDNSKNTLYLQMNSLRAEDTAVYYCARVYYHYYYYGSFDYWGQGTLVTVSSGGGGSGGGGSGGGGSDIQMTQSPSSLSASVGDRVTITCRASQSISSYLNWYQQKPGKAPKLLIYAASSLQSGVPSRFSGSGSGTDFTLTISSLQPEDFATYYCQQSTHLSTFGQGTKLEIKR : 0.903 absorbance at 450 nm
